pIC50 reference
- assayed target: rat NaP2b (SLC34A2) (Rattus norvegicus, UniProt Q9JJ09)
- Construct: host or cells: HEK293
- Sequence (Q9JJ09 whole entry): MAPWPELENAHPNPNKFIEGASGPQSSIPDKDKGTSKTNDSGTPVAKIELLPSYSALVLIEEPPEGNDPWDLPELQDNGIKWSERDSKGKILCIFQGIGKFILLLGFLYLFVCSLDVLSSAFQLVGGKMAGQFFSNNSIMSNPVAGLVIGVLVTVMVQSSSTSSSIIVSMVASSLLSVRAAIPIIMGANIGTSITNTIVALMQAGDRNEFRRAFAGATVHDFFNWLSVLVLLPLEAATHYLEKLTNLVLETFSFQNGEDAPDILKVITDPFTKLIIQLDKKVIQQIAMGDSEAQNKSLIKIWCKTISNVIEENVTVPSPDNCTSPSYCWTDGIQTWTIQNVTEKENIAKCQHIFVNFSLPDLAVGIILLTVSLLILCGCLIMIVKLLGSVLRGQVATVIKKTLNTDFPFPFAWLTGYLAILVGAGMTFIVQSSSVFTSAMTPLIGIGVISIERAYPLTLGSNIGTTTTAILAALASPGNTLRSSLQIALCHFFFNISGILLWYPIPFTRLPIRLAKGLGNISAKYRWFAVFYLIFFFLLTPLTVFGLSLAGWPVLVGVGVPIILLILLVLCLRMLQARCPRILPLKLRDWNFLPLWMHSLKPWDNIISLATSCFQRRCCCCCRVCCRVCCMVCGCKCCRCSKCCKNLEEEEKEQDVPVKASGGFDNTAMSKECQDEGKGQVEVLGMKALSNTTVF
- experiment description: Inhibition of NaP2b-mediated Pi (33P) uptake in transfected HEK293 cells, rat NaP2b
- Assay type: cell-based
- experimental parameters: 33P Pi uptake, 0.1 mM phosphate, value given as pIC50 range
- Protocol: HEK293 cells were obtained from the American Type Culture collection and propagated per their instructions. […] The sequence of the human protein was mutated to insert a threonine after residue 37, and to introduce a N39D mutation. […] Cells were lysed by addition of 20 μL 0.1% Tween 80 followed by 100 μL scintillation fluid, and counted using a TopCount (Perkin Elmer). pIC50 (the negative log of the IC50) values of the test compounds were calculated using GraphPad Prism.
pIC50: −log10 of the molar value.

Consider the worked cases shown below.
CCN(CC)c1ccc(NC(=O)c2cccc(COCCOCCOCCOCCOC(=O)NCCOCCOCCOCCOCCOCCOCCOC)c2)c(-c2cc(C(=O)NCc3cccc(C(F)(F)F)c3)ccn2)c1 5.10 to 6.00
COc1cc(C(=O)Nc2ccc(N3CCCCC3)cc2-c2cc(C(=O)NCc3cccc(C(F)(F)F)c3)ccn2)cc(C(=O)N(C)CCN2CCOCC2)c1 4.50 to 5.00
O=C(O)CCSCc1cccc(C(=O)Nc2ccc(N3CCCCC3)cc2-c2cc(C(=O)NCc3cccc(C(F)(F)F)c3F)ccn2)c1 5.10 to 6.00
CCN(CC)c1ccc(NC(=O)c2cccc(CCCOCCOCCOCCOCCO)c2)c(-c2cc(C(=O)NCc3cccc(C(F)(F)F)c3)ccn2)c1 > 6.00
COCCNC(=O)CCN(C)C(=O)c1cccc(C(=O)Nc2ccc(N3CCCCC3)cc2-c2cc(C(=O)NCc3cccc(C(F)(F)F)c3)ccn2)c1 5.10 to 6.00

Prompt: Return reported pIC50; argument: CCN(CC)c1ccc(NC(=O)c2cccc(CCCOCCOCCOCCOCCNC(=O)c3ccc(O)cc3)c2)c(-c2cc(C(=O)N[C@H]3CCCc4ccccc43)ccn2)c1
Response: > 6.00

###

- experiment description: Determination of compound Cmax and AUC after oral gavage (plasma LC-MS/MS)
- Format: in vivo, Sprague-Dawley rats
- experimental parameters: Sprague-Dawley, rat, plasma, po, Structure (I) examples, Table 15, actual oral dose 3-15 mg/kg, plasma 0.5-4 h
- Procedure: Sprague-Dawley rats were orally gavaged with test article at a nominal dose of 2.5 or 10 mg/kg and blood was collected at 0.5, 1, 2 and 4 h. Blood samples were processed to plasma using K2EDTA as an anticoaglulant. […] Supernatants were analyzed by LC-MS/MS and compound concentrations were determined by interpolation from a standard curve prepared in plasma. All compounds were orally dosed at the dosage shown, and pharmacokinetic parameters determined. […]
observable: AUC

Consider the worked cases shown below.
O=C(O)c1cccc(SCc2cccc(C(=O)Nc3ccc(N4CCCCC4)cc3-c3cc(C(=O)NCc4cccc(C(F)(F)F)c4)ccn3)c2)c1 < 0.03 µg·h/mL
CN(CCN1CCC[C@H]1C(=O)NCCOCCOCCOCCC(=O)O)C(=O)c1cccc(C(=O)Nc2ccc(N3CCCCC3)cc2-c2cc(C(=O)N[C@H]3CCCc4ccccc43)ccn2)c1 < 0.03 µg·h/mL

Now consider a different compound.
Prompt: Return reported AUC; argument: CN(CCOCCOCCOCCC(=O)N1CCN(CCOCCO)CC1)C(=O)c1cccc(C(=O)Nc2ccc(N3CCCCC3)cc2-c2cc(C(=O)N[C@H]3CCCc4ccccc43)ccn2)c1
Response: < 0.01 µg·h/mL

###

pIC50 reference
- assayed target: rat NaP2b (SLC34A2) (Rattus norvegicus)
- Construct: host or cells: HEK293
- experiment description: Inhibition of NaP2b-mediated Pi (33P) uptake in transfected HEK293 cells, rat NaP2b
- Assay type: cell-based
- experimental parameters: 33P Pi uptake, 0.1 mM phosphate, value given as pIC50 range
pIC50: −log10 of the molar value.

compound	assayed target	pIC50
CCN(CC)c1ccc(NC(=O)c2cccc(CCCOCCOCCOCCOCCNS(=O)(=O)c3ccc(C(=O)N(CCOC)CCOCCOCCOCCOCCOCCOCCOC)cc3)c2)c(-c2cc(C(=O)NCc3cccc(C(F)(F)F)c3)ccn2)c1	rat NaP2b (SLC34A2) (Rattus norvegicus)	5.10 to 6.00
O=C(O)CCSCc1cccc(C(=O)Nc2ccc(N3CCCCC3)cc2-c2cc(C(O)c3cccc(C(F)(F)F)c3)ccn2)c1 (stereo not drawn)	rat NaP2b (SLC34A2) (Rattus norvegicus)	4.50 to 5.00

Now consider a different compound.
Prompt: Give recorded pIC50 with rat NaP2b (SLC34A2) (Rattus norvegicus) for the following compound: CC(=O)N1CCCN(Cc2cccc(C(=O)Nc3ccc(N4CCCCC4)cc3-c3cc(C(=O)NCc4cccc(C(F)(F)F)c4)ccn3)n2)CC1
Response: 5.10 to 6.00

###

% remaining, SIF reference
- experiment description: Stability of compounds in simulated intestinal fluid (SIF)
- Format: in vitro ADME
- experimental parameters: simulated intestinal fluid (3 mg/mL pancreatin), incubation time 6 hr, relative to t=0

CCN(CC)c1ccc(NC(=O)c2cccc(C(=O)N(C)CCN3CCCN(C(=O)OCCOCCOCCOCCOCCOCCOCCOCCOCCOCCOCCOC)CC3)c2)c(-c2cc(C(=O)N[C@H]3CCCc4ccccc43)ccn2)c1 >80%
COCCOCCOCCOCCOCCOCCOCCOCCNC(=O)CCOCCOCCOCCOCCSCc1cccc(C(=O)Nc2ccc(N3CCCCC3)cc2-c2cc(C(=O)NCc3cccc(C(F)(F)F)c3)ccn2)c1 >80%
CCN(CC)c1ccc(NC(=O)c2cccc(CSCCOCCOCCOCCOCCOCCOCCOCCOC)c2)c(-c2cc(C(=O)N[C@H]3CCCc4ccccc43)ccn2)c1 >80%
CCCN(CCC)c1ccc(NC(=O)c2cccc(COCCOCCOCCOCCOCCOCCOCCOCCOC)c2)c(-c2cc(C(=O)NCc3cccc(C(F)(F)F)c3)ccn2)c1 >80%
CCN(CC)c1ccc(NC(=O)c2cccc(COCCOCCOCCOCCOCCOCCOC(=O)N3CCC(CCOCCO)CC3)c2)c(-c2cc(C(=O)NCc3cccc(C(F)(F)F)c3)ccn2)c1 >80%
CCN(CC)c1ccc(NC(=O)c2cccc(Cn3ccc4c(C(=O)NCCOCCOCCOCCC(=O)O)cccc43)c2)c(-c2cc(C(=O)N[C@H]3CCCc4ccccc43)ccn2)c1 >80%
CN(CCN1CCOCC1)C(=O)c1cccc(C(=O)Nc2ccc(N3CCCCC3)cc2-c2cc(C(=O)N[C@H]3CCCc4ccccc43)ccn2)c1.Cl >80%
CC(C)(SCc1cccc(C(=O)Nc2ccc(N3CCCCC3)cc2-c2cc(C(=O)NCc3cccc(C(F)(F)F)c3)ccn2)c1)C(=O)O >80%
CCN(CC)c1ccc(NC(=O)c2cccc(CSCCOCCOCCOCCOCCC(=O)NC(CO)(CO)CO)c2)c(-c2cc(C(=O)N[C@H]3CCCc4ccccc43)ccn2)c1 20-40%
O=C(NCc1cccc(C(F)(F)F)c1)c1ccnc(-c2cc(N3CCCCC3)ccc2NC(=O)c2cccc(CSCCOCCOCCOCCOCCC(=O)N3CCN(CCOCCO)CC3)c2)c1 >80%

Prompt: Return reported % remaining, SIF; argument: O=C(NCc1cccc(C(F)(F)F)c1)c1ccnc(-c2cc(N3CCCCC3)ccc2NC(=O)c2cccc(CSCCOCCOCCOCCOCCC(=O)N(CCO)CCO)c2)c1
Response: 40-60%

###

- Test system: Uptake of Phosphorus from the Intestine
- experiment description: In vivo co-dosing in chow (urine P out / P consumed)
- experimental parameters: Rattus norvegicus, feed or water; rats, compound in chow; mean drug dose 50 mg/kg/day; read-out: Mean % inhibition Urine Pout/P consumed
inhibition in vivo at 50 mg/kg/day reference

Prompt: Return reported inhibition in vivo at 50 mg/kg/day; argument: CCN(CC)c1ccc(NC(=O)c2cccc(CCCOCCOCCOCCOCCOCCOCCOCCOCCOCCC(=O)O)c2)c(-c2cc(C(=O)NCc3cccc(C(F)(F)F)c3)ccn2)c1
Response: 10 to 30%

Prompt: Return reported inhibition in vivo at 50 mg/kg/day; argument: CCN(CC)c1ccc(NC(=O)c2cccc(CCCOCCOCCOCCOCCOCCC(=O)O)c2)c(-c2cc(C(=O)NCc3cccc(C(F)(F)F)c3)ccn2)c1
Response: ≤ 10%

Prompt: Return reported inhibition in vivo at 50 mg/kg/day; argument: CCN(CC)c1ccc(NC(=O)c2cccc(CCCOCCOCCOCCOCCOCCOCCC(=O)O)c2)c(-c2cc(C(=O)NCc3cccc(C(F)(F)F)c3)ccn2)c1
Response: 10 to 30%

Prompt: Return reported inhibition in vivo at 50 mg/kg/day; argument: CCN(CC)c1ccc(NC(=O)c2cccc(CCCOCCOCCOCCOCCNS(=O)(=O)c3ccc(C(=O)N(CCOC)CCOCCOCCOCCOCCOCCOCCOC)cc3)c2)c(-c2cc(C(=O)NCc3cccc(C(F)(F)F)c3)ccn2)c1
Response: ≤ 10%

Prompt: Return reported inhibition in vivo at 50 mg/kg/day; argument: CCN(CC)c1ccc(NC(=O)c2cccc(CCCOCCOCCOCCOCCC(=O)O)c2)c(-c2cc(C(=O)NCc3cccc(C(F)(F)F)c3)ccn2)c1
Response: ≤ 10%
